// reported Inh (PKA) per item
Tested on: PRKACA-PRKAR2A interaction (SmBiT-PRKACA / LgBiT-PRKAR2A), protein kinase A
Parameters: NanoLuc complementation counter-screen in cell extract, PRKACA with PRKAR2A, loss of luminescence, detects NanoLuc interference
Assay Context: counter-screen for NanoLuc interference; 0.5 h, 20 µM; inhibitor
Counter-ions that a name gives are not always drawn.
# value in %; strip the unit string

Molecule	Target System	Inh (PKA) (%)
COc1c(C)c(C(=O)c2ccc(N)c(C(=O)O)c2)n2ccccc12 [UM0142292:01, SSR128129E]	PRKACA-PRKAR2A interaction (SmBiT-PRKACA / LgBiT-PRKAR2A), protein kinase A	31.08
Cc1oncc1C(=O)Nc1ccc(C(F)(F)F)cc1 [UM0118141:03, Leflunomide]	PRKACA-PRKAR2A interaction (SmBiT-PRKACA / LgBiT-PRKAR2A), protein kinase A	16.35
CC(C)(CO)c1cc2cc(NC(=O)C3(c4ccc5c(c4)OC(F)(F)O5)CC3)c(F)cc2n1C[C@@H](O)CO [UM0141480:01, VX-661]	PRKACA-PRKAR2A interaction (SmBiT-PRKACA / LgBiT-PRKAR2A), protein kinase A	12.93
COc1ccc2c(c1)c(CC(=O)N1CCOCC1)c(C)n2C(=O)c1ccc(Cl)cc1 [UM0119946:02, BML-190]	PRKACA-PRKAR2A interaction (SmBiT-PRKACA / LgBiT-PRKAR2A), protein kinase A	40.28
C#CCN(C)CCCOc1ccc(Cl)cc1Cl [UM0118650:03, Clorgyline (hydrochloride)]	PRKACA-PRKAR2A interaction (SmBiT-PRKACA / LgBiT-PRKAR2A), protein kinase A	10.49
CNC(=O)c1cc(Oc2ccc(NC(=O)c3cccc(C(F)(F)F)c3)cc2)ccn1 [UM0141965:01, SKLB610]	PRKACA-PRKAR2A interaction (SmBiT-PRKACA / LgBiT-PRKAR2A), protein kinase A	8.796
Cc1cn([C@H]2C[C@H](N=[N+]=[N-])[C@@H](CO)O2)c(=O)[nH]c1=O [UM0142451:01, Zidovudine]	PRKACA-PRKAR2A interaction (SmBiT-PRKACA / LgBiT-PRKAR2A), protein kinase A	1.207
C=CCc1ccc(O)c(-c2ccc(O)c(CC=C)c2)c1 [UM0119411:03, Honokiol]	PRKACA-PRKAR2A interaction (SmBiT-PRKACA / LgBiT-PRKAR2A), protein kinase A	48.27

So what Inh (PKA) did CCCc1cc(=O)[nH]c(=S)[nH]1 [UM0132755:02, Propylthiouracil] get with PRKACA-PRKAR2A interaction (SmBiT-PRKACA / LgBiT-PRKAR2A), protein kinase A? 1.031

So what Inh (PKA) did CC(C(=O)O)c1ccc2c(c1)CC(=O)c1ccccc1S2 (stereo not drawn) [UM0142265:01, Zaltoprofen] get with PRKACA-PRKAR2A interaction (SmBiT-PRKACA / LgBiT-PRKAR2A), protein kinase A? 16.72

So what Inh (PKA) did CC(C)=CCC/C(C)=C/CC/C(C)=C/CSc1ccccc1C(=O)O [UM0141623:01, Salirasib] get with PRKACA-PRKAR2A interaction (SmBiT-PRKACA / LgBiT-PRKAR2A), protein kinase A? 61.94

So what Inh (PKA) did O=C(CCCCCCNC(=O)c1cnc(N(c2ccccc2)c2ccccc2)nc1)NO [UM0141695:01, Rocilinostat (ACY-1215)] get with PRKACA-PRKAR2A interaction (SmBiT-PRKACA / LgBiT-PRKAR2A), protein kinase A? 1.949

So what Inh (PKA) did C[C@]12CC[C@@H]3c4ccc(O)cc4CC[C@H]3[C@@H]1CCC2=O [UM0142038:01, Estrone] get with PRKACA-PRKAR2A interaction (SmBiT-PRKACA / LgBiT-PRKAR2A), protein kinase A? 7.468

So what Inh (PKA) did CC(C)(Oc1ccc(C2CC2(Cl)Cl)cc1)C(=O)O (stereo not drawn) [UM0119000:03, Ciprofibrate] get with PRKACA-PRKAR2A interaction (SmBiT-PRKACA / LgBiT-PRKAR2A), protein kinase A? 9.84

So what Inh (PKA) did CCCCCCCCCCCCCCCCn1cc[n+](Cc2ccccc2)c1C [UM0142140:01, NH125] get with PRKACA-PRKAR2A interaction (SmBiT-PRKACA / LgBiT-PRKAR2A), protein kinase A? 8.181

So what Inh (PKA) did C=CCNc1ncnc2ccc(Br)cc12 [UM0142792:01, SMER 28] get with PRKACA-PRKAR2A interaction (SmBiT-PRKACA / LgBiT-PRKAR2A), protein kinase A? 2.149

So what Inh (PKA) did N=C(N)NN [UM0142771:01, Aminoguanidine hydrochloride] get with PRKACA-PRKAR2A interaction (SmBiT-PRKACA / LgBiT-PRKAR2A), protein kinase A? 0.824

So what Inh (PKA) did CCN(C(=O)c1c(O)c2c(Cl)cccc2n(C)c1=O)c1ccccc1 [UM0142053:01, Laquinimod (ABR-215062)] get with PRKACA-PRKAR2A interaction (SmBiT-PRKACA / LgBiT-PRKAR2A), protein kinase A? 1.122

So what Inh (PKA) did N=C(N)NC(=N)NCCc1ccccc1 [UM0142225:01, Phenformin HCl] get with PRKACA-PRKAR2A interaction (SmBiT-PRKACA / LgBiT-PRKAR2A), protein kinase A? 1.045

So what Inh (PKA) did O=C(c1ccc(Cl)cc1Cl)n1nnc2ccccc21 [UM0128552:02, ITSA-1 (ITSA1)] get with PRKACA-PRKAR2A interaction (SmBiT-PRKACA / LgBiT-PRKAR2A), protein kinase A? 13.93

====

// reported Inh (PKA) per item
Tested on: PRKACA-PRKAR2A interaction (SmBiT-PRKACA / LgBiT-PRKAR2A), protein kinase A
Parameters: NanoLuc complementation counter-screen in cell extract, PRKACA with PRKAR2A, loss of luminescence, detects NanoLuc interference
Assay Context: counter-screen for NanoLuc interference; 0.5 h, 20 µM; inhibitor
Structures can show the parent of a compound that is named as a salt.
# value in %; strip the unit string

>>> df
                                   compound  endpoint_name  reading
0  Cc1cn(-c2cc(NC(=O)c3ccc(C)c(Nc4nccc(-c5cnccn5)n4)c3)cc(C(F)(F)F)c2)cn1      Inh (PKA)    10.62

Look at this compound and give its reported Inh (PKA). Cc1cc(O)c2c(c1)C(=O)c1cccc(O)c1C2=O 14.51

Look at this compound and give its reported Inh (PKA). CC(C)OC(=O)OCOP(=O)(CO[C@H](C)Cn1cnc2c(N)ncnc21)OCOC(=O)OC(C)C [UM0141413:01, Tenofovir Disoproxil Fumarate] 0.7211

Look at this compound and give its reported Inh (PKA). CCOC(=O)C1=C(C)NC(C)=C(C(=O)OC)C1c1cccc([N+](=O)[O-])c1 (stereo not shown) 91.42

Look at this compound and give its reported Inh (PKA). Cc1cccc(Nc2ccncc2S(=O)(=O)NC(=O)NC(C)C)c1 [UM0119116:03, Torsemide] 21.46

Look at this compound and give its reported Inh (PKA). CCC(CC)CC1(C(=O)Nc2ccccc2SC(=O)C(C)C)CCCCC1 16.33

Look at this compound and give its reported Inh (PKA). C[C@@]1(F)[C@H](O)[C@@H](CO)O[C@H]1n1ccc(=O)[nH]c1=O 1.416

====

Test system: PRKACA-PRKAR2A interaction (SmBiT-PRKACA / LgBiT-PRKAR2A), protein kinase A
Set-up: NanoLuc complementation counter-screen in cell extract, PRKACA with PRKAR2A, loss of luminescence, detects NanoLuc interference
Assay Context: counter-screen for NanoLuc interference; 0.5 h, 20 µM; inhibitor
Endpoint Name: Inh (PKA) (%)
# value in %; strip the unit string

Some compounds with known Inh (PKA) results, for comparison:
>>> df
                                   compound  reading
0  CC(C)CCCCC(=O)N[C@@H](CO)C(=O)N[C@@H](CC(C)C)C(=O)[C@@]1(CO)CO1 [UM0141930:01, Dihydroeponemycin]    3.421
1  C=CCNC1=C2C[C@@H](C)C[C@H](OC)[C@H](O)[C@@H](C)/C=C(\C)[C@H](OC(N)=O)[C@@H](OC)/C=C\C=C(/C)C(=O)NC(=CC1=O)C2=O     8.06
2  COC(=O)Nc1nc2cc(C(=O)c3ccc(F)cc3)ccc2[nH]1     6.18
3  C=CC(=O)Nc1cccc(C)c1Nc1ncc2cc(-c3c(Cl)c(OC)cc(OC)c3Cl)ccc2n1    48.23

Look at this compound and give its reported Inh (PKA). CCCCC1=NC2(CCCC2)C(=O)N1Cc1ccc(-c2ccccc2-c2nnn[nH]2)cc1 5.211

Look at this compound and give its reported Inh (PKA). CN1CCC(COc2cnc(-c3cccc(Cn4nc(-c5cccc(C#N)c5)ccc4=O)c3)nc2)CC1 7.378
